biological target: T1, cynomolgus monkey BCMA (cynomolgus monkey, UniProt A0A2K5UD97 1-53); assay: SPR, IgG on chip, cyBCMA analyte
T1 construct: Soluble analyte in SPR; construct not described; also called cyBCMA; Cyno BCMA
T1 sequence (A0A2K5UD97 entry or part of it): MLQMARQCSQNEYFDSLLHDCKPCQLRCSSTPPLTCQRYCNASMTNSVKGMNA
endpoint: kon (M⁻¹ s⁻¹)
A number alone suffices; assume M⁻¹ s⁻¹.

Use the examples below as a reference point.
1. A02_Rd4_6nM_C22 (antibody, V domains shown, IgG) VH: EVQLLESGGGLVQPGGSLRLSCAASGFTFSSYAMNWVRQAPGKGLEWVSAVLDSGGSTYYADSVKGRFTISRDNSKNTLYLQMNSLRAEDTAVYYCARYWPMTPWGQGTLVTVSS VL: EIVLTQSPGTLSLSPGERATLSCRASQSVSSSYLAWYQQKPGQAPRLLMYDASIRATGIPDRFSGSGSGTDFTLTISRLEPEDFAVYYCQQYQVWPLTFGQGTKVEIK	1.84e+06
2. COMBO_Rd4_0.6nM_C22 (antibody, V domains shown, IgG; also called COM22) VH: EVQLLESGGGLVQPGGSLRLSCAASGFTFSSYAMNWVRQAPGKGLEWVSAISDSGGSRWYADSVKGRFTISRDNSKNTLYLQMNSLRAEDTAVYYCTRYWPMDIWGQGTLVTVSS VL: EIVLTQSPGTLSLSPGERATLSCRASVRVSSTYLAWYQQKPGQAPRLLMYDASIRATGIPDRFSGSGSGTDFTLTISRLEPEDFAVYYCQQYMKWPLTFGQGTKVEIK	1.34e+06
3. COMBO_Rd4_0.6nM_C09 (antibody, V domains shown, IgG) VH: EVQLLESGGGLVQPGGSLRLSCAASGFTFSSYPMSWVRQAPGKGLEWVSAIGGSGGSLPYADSVKGRFTISRDNSKNTLYLQMNSLRAEDTAVYYCARYWPMDIWGQGTLVTVSS VL: EIVLTQSPGTLSLSPGERATLSCRASQSVSSTYLAWYQQKPGQAPRLLMYDASIRATGIPDRFSGSGSGTDFTLTISRLEPEDFAVYYCQQYQEWPLTFGQGTKVEIK	3.77e+06
4. COMBO_Rd4_6nM_C11 (antibody, V domains shown, IgG) VH: EVQLLESGGGLVQPGGSLRLSCAASGFTFSSYPMSWVRQAPGKGLEWVSAIGGSGGSLGYADSVKGRFTISRDNSKNTLYLQMNSLRAEDTAVYYCARYWPMDSWGQGTLVTVSS VL: EIVLTQSPGTLSLSPGERATLSCRASQSVSPLYLAWYQQKPGQAPRLLMYDASIRATGIPDRFSGSGSGTDFTLTISRLEPEDFAVYYCQQYKAWPLTFGQGTKVEIK	2.64e+06

Next:
[in] Reported kon for C01_Rd4_6nM_C20 (antibody, V domains shown, IgG) VH: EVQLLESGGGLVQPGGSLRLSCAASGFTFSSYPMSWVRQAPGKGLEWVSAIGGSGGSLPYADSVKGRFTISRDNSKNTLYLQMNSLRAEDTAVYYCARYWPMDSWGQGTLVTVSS VL: EIVLTQSPGTLSLSPGERATLSCRASQSVSPLYLAWYQQKPGQAPRLLIYDASSRAPGIPDRFSGSGSGTDFTLTISRLEPEDFAVYYCQQYSAFPLTFGQGTKVEIK : what is it?
[out] 3.6e+06
